Would you kindly list KD relative to parental chimera for each of these binders?
measured_on: T1, Cynomolgus Monkey VSIG4-L-His (cynomolgus monkey)
T1 construct: ECD with His tag; also called cyVSIG4-L; cyno VSIG4-L-His
T1 chain: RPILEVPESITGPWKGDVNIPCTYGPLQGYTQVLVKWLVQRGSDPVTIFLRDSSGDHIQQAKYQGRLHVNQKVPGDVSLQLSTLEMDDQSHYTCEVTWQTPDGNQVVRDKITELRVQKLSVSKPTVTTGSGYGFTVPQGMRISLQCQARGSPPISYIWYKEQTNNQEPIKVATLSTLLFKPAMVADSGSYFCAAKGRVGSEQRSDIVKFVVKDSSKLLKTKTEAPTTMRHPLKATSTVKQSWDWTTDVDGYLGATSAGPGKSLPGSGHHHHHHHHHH
assay_procedure: BLI, IgG on AHC sensor, antigen 100 nM
Give just the number in fold; leave the unit off.

// KD relative to parental chimera lookup, key: h13H11.A humanized IgG4 (S228P) kappa (antibody, V domains shown) VH: QIQLVQSGSELKKPGASVKVSCKASGYTFENFGMNWVRQAPGQGLEWMGWINTYTGEATYADGFTGRFVFSLDTSVSTAYLQISSLKAEDTAVYYCARDGGFRHFDVWGQGTTVTVSS VL: ETQVTQSPSSLSASVGDRVTITCQTSTDIDDDMNWYQQKPGKAPKLLISEGNTLRPGVPSRFSSSGYGTDFTFTISSLQPEDIATYYCLQSDNLPLTFGGGTKLEIKR 1

KD relative to parental chimera lookup needed for h14C05.A humanized IgG4 (S228P) kappa (antibody, V domains shown) VH: EVMLVQSGSELKKPGASVKVSCKASGYTFTNYGMNWVRQAPGQGLEWMGSINTYTGEATYADGFTGRFVFSLDTSANTAYLQISSLKAEDTAVYFCARGDYYGRGTWFAYWGQGTLVTVSS VL: ETQVTQSPSSLSASVGDRVTITCRASQDVSTAVAWYQQKPGKAPKLLIYSASYRYPGVPSRFSGSGSGTDFTLTISSLQPEDFATYYCQQDYSSPWTFGGGTKLEIKR , thanks. 0.7

Given the entry h13H11.G humanized IgG4 (S228P) kappa (antibody, V domains shown) VH: QIQLVQSGSELKKPGASVKVSCKASGYTFENFGMNWVRQAPGQGLEWMGWINTYTGEATYADDFKGRFVFSLDTSVSTAYLQISSLKAEDTAVYYCARDGGFRHFDVWGQGTTVTVSS VL: DTQVTQSPSSLSASVGDRVTITCQTSTDIDDDMNWYQQKPGKAPKLLISEGNTLRTGVPSRFSSSGSGTDFTFTISSLQPEDIATYYCLQSDNLPLTFGGGTKLEIKR , report its measured KD relative to parental chimera. 0.9

What value of measured KD relative to parental chimera is listed for h13H11.C humanized IgG4 (S228P) kappa (antibody, V domains shown) VH: QIQLVQSGSELKKPGASVKVSCKASGYTFENFGMNWVRQAPGQGLEWMGWINTYTGEATYADGFTGRFVFSLDTSVSTAYLQISSLKAEDTAVYYCARDGGFRHFDVWGQGTTVTVSS VL: DTQVTQSPSSLSASVGDRVTITCQTSTDIDDDMNWYQQKPGKAPKLLISEGNTLRTGVPSRFSSSGSGTDFTFTISSLQPEDIATYYCLQSDNLPLTFGGGTKLEIKR ? 3.7

Endpoint output: KD relative to parental chimera of h14D12.H humanized IgG4 (S228P) kappa (antibody, V domains shown) VH: QIQLVQSGAEVKKPGASVKVSCKASGYTFTNYGMNWVRQAPGQGLEWMGLINTYTGEPTYADKFQGRVTFTLDTSASTAYMELSSLRSEDTAVYFCARERIYGYLHYFDYWGQGTTVTVSS VL: DIQMTQSPSSLSASVGDRVTITCRASQSVDYDGDSYMNWYQQKPGKAPKLLIYAASNLESGVPSRFSGSGSGTDFTLTISSLQPEDFATYYCQQSNEDPRTFGGGTKLEIKR . Value? 1.2
